- system-name: Collagenase 3 (Homo sapiens, UniProt P45452)
- assay-summary: Inhibition of recombinant human MMP13 using Mca-Pro-Leu-Gly-Leu-Dpa(Dnp)-Ala-Arg-NH2 as substrate after 30 mins by fluorescence spectrometry
quantity-kind: IC50 (nM)

smiles-str: CC(C)[C@H](NS(=O)(=O)c1ccc2c(c1)oc1ccc(NC(=O)Oc3ccc(F)cc3)cc12)C(=O)O
IC50, nM: 65

(I) CC(C)[C@H](NS(=O)(=O)c1ccc2c(c1)oc1ccc(NC(=O)Oc3ccc(I)cc3)cc12)C(=O)O
(II) CC(C)[C@H](NS(=O)(=O)c1ccc2c(c1)oc1ccc(NS(=O)(=O)c3ccc(I)cc3)cc12)C(=O)O
Between I and II , whose measured IC50 reads higher? Mark your answer with the label of the selected entry.
II
